target: T1, Recombinant human CD4 (R&D Systems, Cat. 10327-CD) (human, UniProt P01730 26-390, limits assumed); assay: BLI (Octet Red 384), non-clonal supernatant captured on AMC sensors, 100 nM human CD4, 1:1 local fit;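 note: hybridoma antibodies from supernatants, one CD4 concentration giving single-point kinetics per supernatant, with curves fitted over both association and dissociation phases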
T1 construct: Bought protein; also called huCD4
reportedEndpoint: pKd
Scale: pKd equals -log10([C]), with [C] in mol/L.

# binder, pKd
records = [
    ("75110_08H11A (antibody, V domains shown, Tested as non-clonal AlivaMab Mouse hybridoma supernatant (human variable regions and human kappa, mouse Fc); also called ADS75110 non-clonal supernatant 08H11A) VH: EVQLVESGGGLVQPGGSLRLSCAASGFTFSSYDMHWVRQATGKGLEWVSTIGTAGDTYYPGSVKGRFTISRENAKNSLYLQMNSLRAGDTAVYYCARGGYSYYGMDVWGQGTTVTVSS VL: EIVLTQSPGTLSLSPGERATLSCGASQSVSSTYLAWYQQKPGQAPRLLIYGASSRATGIPDRFSGSGSGTDFTLTISRLEPEDFAVYYCQQFGSSPFTFGPGTKVDIK", 8.54),
]

Okay, next one:
// pKd lookup, key: 75110_01G11A (antibody, V domains shown, Tested as non-clonal AlivaMab Mouse hybridoma supernatant (human variable regions and human kappa, mouse Fc); also called ADS75110 non-clonal supernatant 01G11A) VH: EVQLVESGGGLVQPGGSLRLSCAASGFTFSSYDMHWVRQATGKGLEWVSTIGTAGDTYYPGSVKGRFTISRENARNSLFLQMNSLRAGDTAVYYCARGGDYYYGMDVWGQGTTVTVSS VL: EIVLTQSPGTLSLFPGERATLSCRASQNTYSSYLAWYQQKPGQAPRLLIYGASNRATGIPDRFSGSGSGTDFTLTISRLEPEDFAVYYCQQHGTSPFTFGPGTKVDIK
8.28

meta.source: patent US20220112288A1
